B1: PhoQ; a variant is named by its letters at X, in order, P23837 (parent)
chain: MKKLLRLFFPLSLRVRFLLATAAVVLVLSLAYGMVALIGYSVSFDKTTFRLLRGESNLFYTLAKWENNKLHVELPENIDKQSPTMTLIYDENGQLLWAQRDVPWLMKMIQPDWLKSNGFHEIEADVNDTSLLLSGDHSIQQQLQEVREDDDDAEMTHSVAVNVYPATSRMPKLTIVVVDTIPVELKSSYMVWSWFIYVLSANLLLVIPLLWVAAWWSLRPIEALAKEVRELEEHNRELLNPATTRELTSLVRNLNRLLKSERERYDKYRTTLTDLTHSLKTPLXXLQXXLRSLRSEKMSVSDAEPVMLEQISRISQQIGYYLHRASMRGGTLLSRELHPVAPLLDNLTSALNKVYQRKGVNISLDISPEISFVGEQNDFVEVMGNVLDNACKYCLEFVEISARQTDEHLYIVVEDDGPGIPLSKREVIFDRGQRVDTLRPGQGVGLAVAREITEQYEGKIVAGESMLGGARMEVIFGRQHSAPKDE

- Variants of: B1
- experiment summary: enrichment ratio after two sorts for PhoP signalling (ratio (wild type AVST 3.29)); higher = more functional
- measurement context: with PhoP (E. coli)
Over roughly 140,000 sequences, “enrichment ratio after two sorts for PhoP signalling” has its median near 0; the highest 2% begin near 11. Shown is part of a subset that was picked to be rich in the highest values.
measurement name: enrichment ratio

Illustrative cases are given below, each with its answer.
{"variant label": "EWLV", "enrichment ratio": "≤ 0.25"}
{"variant label": "GECQ", "enrichment ratio": 17}
{"variant label": "QRSN", "enrichment ratio": "≤ 0.25"}
{"variant label": "MNHF", "enrichment ratio": 4.26}
{"variant label": "WQFM", "enrichment ratio": "≤ 0.25"}

Please go through the list and note enrichment ratio for each variant.
1. NGCQ
2. MNAY
3. KLGR

output:
1. ≤ 0.25
2. 17
3. ≤ 0.25

Please go through the list and note enrichment ratio for each variant.
1. FFSN
2. LTTT
3. MNHP

output:
["≤ 0.25", "≤ 0.25", "≤ 0.25"]

Please go through the list and note enrichment ratio for each variant.
1. HSAY
2. TLFF
3. EQTT

output:
1: ≤ 0.25; 2: ≤ 0.25; 3: ≤ 0.25
